Test system: LXRa:RXRa (NR concentration 270 nM, RXRa partner concentration 90 nM)
Test: PBM binding z-score (relative to random genomic background probes); higher = stronger binding; sequences stand for … in GC…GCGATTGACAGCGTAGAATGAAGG
Class field: derived from PBM binding z-score; ranges low = under 2, middle = from 2 up to 5, high = 5 and over

INPUT: Quick check: band for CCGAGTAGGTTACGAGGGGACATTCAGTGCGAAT
OUTPUT: high

INPUT: Next sequence: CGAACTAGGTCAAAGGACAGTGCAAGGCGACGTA
OUTPUT: middle

INPUT: Next sequence: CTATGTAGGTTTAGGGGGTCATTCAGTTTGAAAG
OUTPUT: middle

INPUT: Next sequence: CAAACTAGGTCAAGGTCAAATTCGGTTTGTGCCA
OUTPUT: high

INPUT: Next sequence: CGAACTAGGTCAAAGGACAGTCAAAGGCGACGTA
OUTPUT: middle

INPUT: Next sequence: ATATGTAGGCTAGGGTCATTCAGAAAGTAGGGAA
OUTPUT: middle

INPUT: Next sequence: CAATCTAGGTCAAAGGTCAAAGTCGAGCCAACCA
OUTPUT: high

INPUT: Next sequence: CGTCCAAGGTCAGAGAGGTCATTGAATGCCGAGT
OUTPUT: high

INPUT: Next sequence: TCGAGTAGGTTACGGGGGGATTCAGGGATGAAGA
OUTPUT: middle

INPUT: Next sequence: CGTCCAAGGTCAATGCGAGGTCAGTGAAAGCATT
OUTPUT: high

INPUT: Next sequence: CCTTACGGGTCACGGGGTTATAGCACGACGAGCG
OUTPUT: high

INPUT: Next sequence: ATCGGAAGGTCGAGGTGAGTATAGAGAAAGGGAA
OUTPUT: low

INPUT: Next sequence: ATATGTAGGTTAGGGACATTCAGAAAGTAGGGAA
OUTPUT: low

INPUT: Next sequence: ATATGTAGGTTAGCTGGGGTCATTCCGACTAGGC
OUTPUT: high

INPUT: Next sequence: CGAACTAGGTCACCAGGAGAGTGAAGAGGTTGGA
OUTPUT: middle

INPUT: Next sequence: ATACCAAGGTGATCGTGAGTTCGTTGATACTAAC
OUTPUT: low

INPUT: Next sequence: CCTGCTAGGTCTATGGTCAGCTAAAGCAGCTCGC
OUTPUT: low

INPUT: Next sequence: CGAACTAGGTCACCAGAACAGTGAAGAGGTTGGA
OUTPUT: middle

INPUT: Next sequence: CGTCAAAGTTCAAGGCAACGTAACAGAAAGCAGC
OUTPUT: high

INPUT: Next sequence: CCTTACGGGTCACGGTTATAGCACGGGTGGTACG
OUTPUT: middle

INPUT: Next sequence: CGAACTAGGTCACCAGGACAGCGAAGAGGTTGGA
OUTPUT: middle

INPUT: Next sequence: CGAACTAGGTCAAAGGACACTGAAAGGCGACGTA
OUTPUT: middle

INPUT: Next sequence: CCGACTGGGTCAAAGGTTACCATACTCAGTACGA
OUTPUT: middle

INPUT: Next sequence: ATCGAAACGTCGTGAGGTGAGTATACAGAAAGGC
OUTPUT: low

INPUT: Next sequence: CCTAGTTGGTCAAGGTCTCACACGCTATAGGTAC
OUTPUT: low

INPUT: Next sequence: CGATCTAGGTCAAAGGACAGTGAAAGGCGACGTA
OUTPUT: middle
